- measurement target: human DGKζ (Homo sapiens)
- Construct: TVMV protease cleavage site (C); Hexa-His (C); made in house; host or cells: Sf9 insect cells (baculovirus, Bac-to-Bac)
- assay method text: DGKζ LIPGLO assay (extruded liposome substrate), in vitro DGK inhibition
- Assay type: biochemical
- run parameters: DGKζ liposome (LIPGLO) assay; read-out: DGKz LIPGLO IC50
Kindly supply the reported pIC50 values for the records listed here.
Worth noting: pIC50 values are minus log10 of concentrations stated in mol/L.

Record COC(=O)c1cccc(C(C)N2C[C@H](C)N(c3c(C#N)c(=O)n(C)c4ccc(C#N)nc34)C[C@H]2C)c1 (single isomer, unassigned) [Example 796] . Reported pIC50: 5.66

Record C[C@@H]1CN(c2c(C#N)c(=O)n(C)c3ccc(C#N)nc23)[C@@H](C)CN1C(c1ccc(F)cc1)c1cn(C)cn1 (single isomer, unassigned) [Example 853] . Reported pIC50: 4.42

Record C[C@@H]1CN(c2c(C#N)c(=O)n(C)c3ccc(C#N)nc23)CCN1C(c1ccccc1)c1ccc(F)cc1 (single isomer, unassigned) [Example 879] . Reported pIC50: 5.96

Record C[C@@H]1CN(c2c(C#N)c(=O)n(C)c3ccc(C#N)nc23)[C@@H](C)CN1C(c1cccc(F)c1)c1ccc(C(F)(F)F)cn1 (single isomer, unassigned) [Example 840] . Reported pIC50: 5.55

Record CC(c1ccc(C#N)cc1)N1CCN(c2c(C#N)c(=O)n(C)c3ccc(C#N)nc23)C[C@H]1C (stereo partly drawn) [Example 954] . Reported pIC50: 5.19

Record C[C@@H]1CN(c2cc(=O)n(C)c3ccc(C#N)nc23)[C@@H](C)CN1C(c1ccc(F)cc1)c1nnnn1C(C)(C)C (single isomer, unassigned) [Example 771] . Reported pIC50: 5.07

* * *

- measurement target: human DGKζ (Homo sapiens, UniProt Q13574)
- Construct: TVMV protease cleavage site (C); Hexa-His (C); made in house; host or cells: Sf9 insect cells (baculovirus, Bac-to-Bac)
- Sequence (Q13574 with tags, fused parts or gaps isoform Q13574-4): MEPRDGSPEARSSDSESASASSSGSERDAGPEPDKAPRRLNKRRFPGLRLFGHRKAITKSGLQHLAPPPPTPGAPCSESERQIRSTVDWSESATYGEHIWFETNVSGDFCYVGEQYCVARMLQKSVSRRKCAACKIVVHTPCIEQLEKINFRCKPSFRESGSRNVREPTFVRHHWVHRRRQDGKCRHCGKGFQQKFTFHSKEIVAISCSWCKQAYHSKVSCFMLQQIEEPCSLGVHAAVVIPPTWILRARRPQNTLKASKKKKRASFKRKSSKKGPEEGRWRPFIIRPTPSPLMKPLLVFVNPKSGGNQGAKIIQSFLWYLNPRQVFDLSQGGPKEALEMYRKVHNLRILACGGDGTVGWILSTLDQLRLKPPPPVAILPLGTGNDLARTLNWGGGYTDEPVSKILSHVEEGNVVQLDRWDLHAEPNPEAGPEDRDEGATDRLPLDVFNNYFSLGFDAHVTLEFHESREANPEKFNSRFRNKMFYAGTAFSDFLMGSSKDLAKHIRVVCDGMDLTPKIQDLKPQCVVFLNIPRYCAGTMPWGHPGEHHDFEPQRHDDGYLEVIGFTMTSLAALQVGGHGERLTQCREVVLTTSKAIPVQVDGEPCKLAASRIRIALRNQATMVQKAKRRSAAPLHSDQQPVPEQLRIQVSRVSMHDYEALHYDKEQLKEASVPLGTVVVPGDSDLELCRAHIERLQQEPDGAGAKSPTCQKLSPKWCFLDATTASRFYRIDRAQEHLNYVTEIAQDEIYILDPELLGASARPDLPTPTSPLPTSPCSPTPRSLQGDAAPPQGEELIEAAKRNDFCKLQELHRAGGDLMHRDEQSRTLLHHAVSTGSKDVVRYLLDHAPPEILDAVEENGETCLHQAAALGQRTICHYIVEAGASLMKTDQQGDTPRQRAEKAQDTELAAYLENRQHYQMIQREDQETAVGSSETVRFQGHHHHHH
- assay method text: DGKζ LIPGLO assay (extruded liposome substrate), in vitro DGK inhibition
- Assay type: biochemical
- run parameters: liposome (LIPGLO) assay; read-out: DGKz LIPGLO IC50
Kindly supply the reported IC50 values for the records listed here.
Just the number please, in nM, no unit attached.

Record C[C@@H]1CN(c2cc(=O)n(C)c3ccc(C#N)nc23)[C@@H](C)CN1C(c1ccc(F)cn1)c1ccc(F)cc1F (single isomer, unassigned) [Example 685] . Reported IC50: 1000

Record CC[C@H]1CN(C(C)c2cc(F)cc(OC(F)(F)F)c2)[C@H](C)CN1c1cc(=O)n(C)c2ccc(C#N)nc12 (stereo partly drawn) [Example 1384] . Reported IC50: 260

Record CCC(c1ccc(OC(C)C)cc1)N1C[C@H](C)N(c2cc(=O)n(C)c3ccc(C#N)nc23)C[C@H]1C (single isomer, unassigned) [Example 1450] . Reported IC50: 3600

* * *

- measurement target: human DGKα (Homo sapiens, UniProt P23743)
- Construct: TVMV protease cleavage site (C); Hexa-His (C); made in house; host or cells: Sf9 insect cells (baculovirus, Bac-to-Bac)
- Sequence (P23743 with tags, fused parts or gaps): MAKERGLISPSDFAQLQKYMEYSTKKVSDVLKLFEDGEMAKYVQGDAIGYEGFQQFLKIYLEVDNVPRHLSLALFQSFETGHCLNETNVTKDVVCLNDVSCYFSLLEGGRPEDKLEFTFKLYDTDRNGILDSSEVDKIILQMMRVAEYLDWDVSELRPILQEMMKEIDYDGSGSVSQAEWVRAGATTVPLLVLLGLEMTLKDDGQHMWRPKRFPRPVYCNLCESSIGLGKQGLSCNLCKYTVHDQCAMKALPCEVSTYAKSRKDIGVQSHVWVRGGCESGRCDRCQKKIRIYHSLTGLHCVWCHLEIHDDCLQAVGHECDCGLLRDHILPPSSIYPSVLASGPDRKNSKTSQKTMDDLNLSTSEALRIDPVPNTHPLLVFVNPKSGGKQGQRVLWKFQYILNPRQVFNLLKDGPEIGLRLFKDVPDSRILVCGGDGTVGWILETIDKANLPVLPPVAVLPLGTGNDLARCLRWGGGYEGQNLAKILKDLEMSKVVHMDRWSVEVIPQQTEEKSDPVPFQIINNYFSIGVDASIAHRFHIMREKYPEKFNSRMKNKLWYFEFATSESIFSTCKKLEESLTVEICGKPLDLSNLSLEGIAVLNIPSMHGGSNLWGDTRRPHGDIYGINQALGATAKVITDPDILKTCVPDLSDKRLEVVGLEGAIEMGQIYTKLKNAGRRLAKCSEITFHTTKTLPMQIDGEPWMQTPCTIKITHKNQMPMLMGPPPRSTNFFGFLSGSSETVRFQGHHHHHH
- assay method text: DGKα LIPGLO assay (extruded liposome substrate), in vitro DGK inhibition
- Format: biochemical
- run parameters: liposome (LIPGLO) assay; read-out: DGKa LIPGLO IC50
Where a name gives a salt, the structure may show the parent alone.
Binning rule for recorded IC50: bin 1 = under 0.9 µM, bin 2 = from 0.9 µM up to 10 µM, bin 3 = 10 µM and over

Q: Looking at COCCOC[C@@H]1CN(c2cc(=O)n(C)c3ccc(C#N)nc23)[C@@H](C)CN1C(C)c1ccc(OC(F)(F)F)cc1 (single isomer, unassigned) [Example 1405] , which class would you pick?
A: bin 2

Q: Looking at C[C@@H]1CN(c2cc(=O)n(C)c3ccc(C#N)nc23)[C@@H](C)CN1C(c1ccc(F)cc1)C1CCS(=O)(=O)CC1 (single isomer, unassigned) [Example 1300] , which class would you pick?
A: bin 3

Q: Looking at CC[C@@H]1CN(c2cc(=O)n(C)c3ccc(C#N)nc23)[C@@H](CC)CN1Cc1ccc2c(c1)OC(F)(F)O2 , which class would you pick?
A: bin 2

Q: Looking at CC(c1cccc2ncccc12)N1C[C@H](C)N(c2cc(=O)n(C)c3ccc(C#N)nc23)C[C@H]1C (single isomer, unassigned) [Example 639] , which class would you pick?
A: bin 3

Q: Looking at CC[C@@H]1CN(c2c(C#N)c(=O)n(C)c3ccc(C#N)nc23)CCN1C(c1ccc(F)cc1)c1ccc(F)cc1 , which class would you pick?
A: bin 2

Q: Looking at CC(c1ccc(OC(F)(F)F)cc1)N1C[C@@H](C)N(c2cc(=O)n(C)c3ccc(C#N)nc23)C[C@@H]1CO (single isomer, unassigned) [Example 1181] , which class would you pick?
A: bin 3

Q: Looking at CC(c1ccc(C(F)(F)F)cc1F)N1C[C@H](C)N(c2cc(=O)n(C)c3ccc(C#N)nc23)C[C@H]1C (stereo partly drawn) [Example 431] , which class would you pick?
A: bin 2

Q: Looking at C[C@@H]1CN(c2cc(=O)n(C)c3ccc(C#N)nc23)[C@@H](C)CN1C(c1ccccc1)c1cccc(Cl)c1 (stereo partly drawn) , which class would you pick?
A: bin 2

Q: Looking at CC(C)C(C)(F)C1CN(c2cc(=O)n(C)c3ccc(C#N)nc23)CCN1C(c1ccc(F)cc1)c1ccc(F)cc1 (single isomer, unassigned) [Example 90, TFA] , which class would you pick?
A: bin 3

Q: Looking at CC[C@H]1CN(C(C)c2ccc(OC(F)(F)F)cc2)[C@H](C)CN1c1cc(=O)n(C)c2ccc(C#N)nc12 (single isomer, unassigned) [Example 1142] , which class would you pick?
A: bin 1

Q: Looking at COc1cc(OC(F)(F)F)ccc1CN1C[C@H](C)N(c2cc(=O)n(C)c3ccc(C#N)nc23)C[C@H]1C , which class would you pick?
A: bin 1

Q: Looking at COC(=O)C1CN(c2c(F)c(=O)n(C)c3ccc(C#N)nc23)CCN1C(c1ccc(Cl)cc1)c1ccc(Cl)cc1 (single isomer, unassigned) [Example 94] , which class would you pick?
A: bin 3

Q: Looking at CC[C@@H]1CN(c2cc(=O)n(C)c3ccc(C#N)nc23)[C@@H](C)CN1C(C)c1c(F)cc(F)cc1F (single isomer, unassigned) [Example 1089] , which class would you pick?
A: bin 1

Q: Looking at COc1cc(F)ccc1C(c1ccc(F)cc1)N1C[C@H](C)N(c2c([N+](=O)[O-])c(=O)n(C)c3ccc(C#N)nc23)C[C@H]1C (single isomer, unassigned) [Example 122] , which class would you pick?
A: bin 3

Q: Looking at CC[C@H]1CN(C(c2ccc(F)cc2)c2cccc(C(F)(F)F)n2)[C@H](CC)CN1c1cc(=O)n(C)c2ccc(C#N)nc12 (single isomer, unassigned) [Example 1045] , which class would you pick?
A: bin 1

Q: Looking at C[C@@H]1CN(c2cc(=O)n(C)c3ccc(C#N)nc23)[C@@H](C)CN1Cc1ccc(F)cc1C(F)F , which class would you pick?
A: bin 2

Q: Looking at CC(C)Oc1cccc(CN2C[C@H](C)N(c3cc(=O)n(C)c4ccc(C#N)nc34)C[C@H]2C)c1 , which class would you pick?
A: bin 2

Q: Looking at CC[C@H]1CN(C(C)c2ccc(C(F)(F)F)cc2F)[C@H](CC)CN1c1cc(=O)n(C)c2ccc(C#N)nc12 (single isomer, unassigned) [Example 1364] , which class would you pick?
A: bin 1

Q: Looking at C[C@@H]1CN(c2cc(=O)n(C)c3ccc(C#N)nc23)[C@@H](C)CN1Cc1cccc2c1cnn2C , which class would you pick?
A: bin 3

Q: Looking at CC(C)[C@@H]1CN(c2c(C#N)c(=O)n(C)c3ccc(C#N)nc23)CCN1C(c1ccc(F)cc1)c1ccc(F)cc1 , which class would you pick?
A: bin 2

Q: Looking at COc1ccc(C(C)N2C[C@H](C)N(c3cc(=O)n(C)c4ccc(C#N)nc34)C[C@H]2C)cc1OCCN1CCOCC1 (stereo partly drawn) [Example 1305] , which class would you pick?
A: bin 3

Q: Looking at Cn1c(=O)cc(N2CCN(C(c3ccc(F)cc3)c3ccc(F)cc3)CC2C#N)c2nc(C#N)ccc21 (stereo not drawn) [Example 145] , which class would you pick?
A: bin 2
